Biological target: Proteasome subunit beta (Trypanosoma cruzi)
Assay: Trypanosoma cruzi proteasome chymotrypsin-like activity (TcProtChymo) assay.
Type: functional
Set-up: scale not given: in the data most compounds retested in dose-response had high values
Conditions: 9.37 µM
Measured Percent Effect accompanies every entry in the list below.
reportedProperty: Percent Effect (%)

molecule: Cc1ccn(-c2ccccc2NCc2cccnc2C)n1
reportedMeasurement: 3.02

molecule: O=C(C1CCC1)N1CCN(c2snc3ccccc23)CC1
reportedMeasurement: 5.83

molecule: Cn1nc(COc2cccnc2)c2c1CCN(c1cnccn1)C2
reportedMeasurement: 26.2

molecule: Cc1nn(C)c(C)c1C1CCCN1C(=O)CCNc1ncccn1 (centres undefined)
reportedMeasurement: -1.1

molecule: CCc1nc(CN2CCCN(C(=O)C(C)COC)CC2)cs1 (centres undefined)
reportedMeasurement: 17.2

molecule: COCC1CN(Cc2ccc(C)o2)Cc2cn(C)nc21 (centres undefined)
reportedMeasurement: 5.13

molecule: O=S(=O)(c1cccs1)N1CCCn2nnc(CN3CCCCC3)c2C1
reportedMeasurement: -0.513

molecule: CC(C)(C)c1n[nH]c(C2CN(C(=O)c3cc(C4CC4)on3)CCO2)n1 (centres undefined)
reportedMeasurement: -4.7

molecule: COCCN(C)C(=O)Cn1cccc(OC)c1=O
reportedMeasurement: 18.4

molecule: CSCC(C)(O)CNC(=O)c1ccc(Br)cc1F (centres undefined)
reportedMeasurement: 2.15

molecule: CCC(CC)NC(=O)Cn1nc(C)nc1-c1ccccc1
reportedMeasurement: 3.6

molecule: O=C(Cn1cccnc1=O)NC(Cc1ccsc1)c1ccccn1 (centres undefined)
reportedMeasurement: 5.3

molecule: O=C(c1cncc(Br)c1)N1CCC(O)(Cn2ccc3ccncc32)CC1
reportedMeasurement: 9.52

molecule: Cc1cnn(CC2CCCN2Cc2nccn2C)c1 (centres undefined)
reportedMeasurement: 3.94

molecule: CC(=O)c1cn(CCC(=O)N[C@H](C(=O)O)C(C)C)c2ccccc12
reportedMeasurement: 11.7

molecule: Cc1ccccc1C(=O)NCc1ccc(N2CCNC(=O)C2)c(F)c1
reportedMeasurement: 8.97

molecule: NC(=O)N1CCC2(CCN(Cc3cccc(F)c3)CC2)CC1
reportedMeasurement: 14.3

molecule: COC(CNC(=O)N1CCC(n2cncn2)CC1)c1ccccc1 (centres undefined)
reportedMeasurement: 0.686

molecule: NC(=O)CN1CCCN(C(=O)c2ccn(-c3cccc(F)c3)n2)CC1
reportedMeasurement: 10.3

molecule: CC(=O)NCCNC(=O)N(C)Cc1ccc2c(c1)OCCO2
reportedMeasurement: 1.79

molecule: Cc1nc(C)n(CC2CCCN(c3ncnc4[nH]ccc34)C2)n1 (centres undefined)
reportedMeasurement: 15.8

molecule: Cc1nc(CCCNC(=O)C2CC(=O)N(C3CC3)C2)sc1C (centres undefined)
reportedMeasurement: 16.9

molecule: CCc1nccn1C1CCCN(C(=O)c2ccc3c(c2)OCO3)C1 (centres undefined)
reportedMeasurement: 1.01

molecule: Cn1ccnc1CN1CCC2(CC1)CN(CC1CC1)C(=O)CO2
reportedMeasurement: 0.522

molecule: CCOc1cccc(CNC(=O)NCC(O)c2cccc(F)c2)c1 (centres undefined)
reportedMeasurement: -1.44

molecule: CS(=O)(=O)NCCC(=O)NC1CCc2nccn2C1 (centres undefined)
reportedMeasurement: 19.7

molecule: Cc1cnn(CC2CCCN2Cc2ncc(-c3ccccc3)o2)c1 (centres undefined)
reportedMeasurement: 8.11

molecule: Cc1ccc2c(n1)N(C)CCN(C(=O)NC1CC1)C2
reportedMeasurement: 4.96

molecule: Cc1ccc(CN2Cc3nnn(C)c3C(COCCN(C)C)C2)s1 (centres undefined)
reportedMeasurement: 4.89

molecule: CCc1ncc(C(=O)N2CCCCC2Cn2cccn2)s1 (centres undefined)
reportedMeasurement: -4.13

molecule: CC(C)c1nc(C2CCCN2CC(=O)N2CCNC2=O)no1 (centres undefined)
reportedMeasurement: 1.34

molecule: CCCN1C(=O)CC(N2CCN(c3ccc(F)cc3)CC2)C1=O (centres undefined)
reportedMeasurement: 11.6

molecule: CC(C)NS(=O)(=O)c1cc(C(=O)O)cc(-c2ccccc2CN(C)C)c1
reportedMeasurement: 3

molecule: OC(COCc1ccccc1Cl)CN1CC(n2cccn2)C1 (centres undefined)
reportedMeasurement: 14.5

molecule: Cc1nn(C)c(Cl)c1C1CCCN1C(=O)c1ccc2nncn2c1 (centres undefined)
reportedMeasurement: 3.6

molecule: CC(NCc1ccc(Cl)o1)c1nnc2n1CCCC2 (centres undefined)
reportedMeasurement: 15

molecule: O=C(NC1CCCN(c2ncccn2)C1)c1ccoc1 (centres undefined)
reportedMeasurement: 8.34

molecule: Cc1noc(C(C)C)c1C(=O)NCc1cc(F)cc(F)c1
reportedMeasurement: 11.5

molecule: CCc1nnc2n1CCN(C(=O)Cc1csc(-c3ccco3)n1)C2
reportedMeasurement: 8.76

molecule: c1ccc(OCC2CC3(CCN(Cc4ccncc4)CC3)CO2)nc1 (centres undefined)
reportedMeasurement: 12.2

molecule: CCOCCN1CCN(Cc2nnc(C3CC3)o2)CC1CC (centres undefined)
reportedMeasurement: 1.95

molecule: Cc1cc(C)c2nc(CN3CC[C@@H](O)C3)cc(O)c2c1
reportedMeasurement: 11.9

molecule: Cc1nc(C2CCCN(C(=O)c3cccc4c3OCO4)C2)no1 (centres undefined)
reportedMeasurement: 19.9

molecule: O=C(C1COCCO1)N1CCN(Cc2ccc3c(c2)CCO3)CC1 (centres undefined)
reportedMeasurement: -0.0846

molecule: O=C(CCc1ccc(=O)[nH]n1)N1CCCC(COc2ccc(F)cc2)C1 (centres undefined)
reportedMeasurement: 16.3

molecule: CC(CN1CCCC1)C(=O)N1CCC(c2nccn2CC2CC2)CC1 (centres undefined)
reportedMeasurement: 16.2

molecule: CCc1noc(C)c1C(=O)N1CCCC1c1c(C)nn(C)c1OC (centres undefined)
reportedMeasurement: -3.03

molecule: C1CC(c2noc(C3CC3)n2)CN(Cc2noc(C3CC3)n2)C1 (centres undefined)
reportedMeasurement: 1.62

molecule: CC(CNC(=O)N1CCSCC1)Cc1cccs1 (centres undefined)
reportedMeasurement: 5.83

Values were extracted from ChEMBL document CHEMBL3988442.
